Items are presented alongside their recorded CC50.
methodSummary: Cytotoxicity against human MT2 cells
Type: toxicity, cell-based

Cc1nc(C)c([C@H](OC(C)(C)C)C(=O)O)c(N2CCC(C)(C)CC2)c1-c1ccc2c(c1)CCN(Cc1ccc(F)cc1)C2 = ≥ 22 µM
Cc1nc(C)c([C@H](OC(C)(C)C)C(=O)O)c(N2CCC(C)(C)CC2)c1-c1ccc2c(c1)CCN(Cc1cccc(F)c1C)C2 = ≥ 24 µM
Cc1nc(C)c([C@H](OC(C)(C)C)C(=O)O)c(N2CCC(C)(C)CC2)c1-c1ccc(OCCc2ccc(F)cc2)nc1 = ≥ 22 µM

The value of CC50 measured for the compound Cc1cccc(F)c1CN1CCc2cc(-c3c(C)nc(C)c([C@H](OC(C)(C)C)C(=O)O)c3N3CCC(C)(C)CC3)ccc2C1 turned out to be ≥ 24 µM

Please fill in: CC50 reported for Cc1nc(C)c([C@H](OC(C)(C)C)C(=O)O)c(N2CCC(C)(C)CC2)c1-c1cnn(CCCc2ccc(F)cc2)c1 = ≥ 22 µM

// recorded CC50 for Cc1nc(C)c([C@H](OC(C)(C)C)C(=O)O)c(N2CCC(C)(C)CC2)c1-c1ccc2c(c1)CCN(c1ncnc3c1cnn3C)C2 : ≥ 17 µM

Reported CC50 of Cc1nc(C)c([C@H](OC(C)(C)C)C(=O)O)c(N2CCC(C)(C)CC2)c1-c1cnc(OCCc2ccc(F)cc2)nc1 : ≥ 22 µM

---

methodSummary: Cytotoxicity against human MT2 cells
Type: toxicity, cell-based
measurementKind: CC50

Answered examples (3):
Cc1cccc(Cl)c1CN1CCc2cc(-c3cnc(C)c([C@H](OC(C)(C)C)C(=O)O)c3N3CCC(C)(C)CC3)ccc2C1 = 19.5 µM
Cc1nc(C)c([C@H](OC(C)(C)C)C(=O)O)c(N2CCC(C)(C)CC2)c1-c1ccc2c(c1)CCN(Cc1cccc(F)c1F)C2 = ≥ 24 µM
Cc1nc(C)c([C@H](OC(C)(C)C)C(=O)O)c(N2CCC(C)(C)CC2)c1-c1ccc2c(c1)CCN(c1nccc(-c3cnccn3)n1)C2 = ≥ 17 µM

CC50 measured on Cc1nc(C)c([C@H](OC(C)(C)C)C(=O)O)c(N2CCC(C)(C)CC2)c1-c1ccc2c(c1)CCN(c1ncnc3c1oc1ccccc13)C2 = ≥ 17 µM

Entry Cc1nc(C)c([C@H](OC(C)(C)C)C(=O)O)c(N2CCC(C)(C)CC2)c1-c1ccc2c(c1)CC[C@H](Cc1ccc(F)cc1)O2 , CC50 reported as ≥ 22 µM

Query Cc1nc(C)c([C@H](OC(C)(C)C)C(=O)O)c(N2CCC(C)(C)CC2)c1-c1ccc2c(c1)CC[C@@H](Cc1ccc(F)cc1)O2 yields CC50 of ≥ 22 µM

Sample Cc1nc(C)c([C@H](OC(C)(C)C)C(=O)O)c(N2CCC(C)(C)CC2)c1-c1ccc2c(c1)CCN(Cc1ccc(F)cc1F)C2 ; CC50 observed: ≥ 24 µM

---

Reported fold change (FC) values are given for each entry in this list.
methodSummary: Toxicity in rat Hepatoma cell line assessed as fold change in lipid droplet count at 10 uM incubated for 48 hrs by plate reader assay
Type: cell-based
I only need the number, thanks.

Solved cases (3 shown):
Cc1cccc(Cl)c1CN1CCc2cc(-c3cnc(C)c([C@H](OC(C)(C)C)C(=O)O)c3N3CCC(C)(C)CC3)ccc2C1 = 1.8
Cc1cccc(Cl)c1CN1CCc2cc(-c3c(C)nc(C)c([C@H](OC(C)(C)C)C(=O)O)c3N3CCC(C)(C)CC3)ccc2C1 = 3.7
Cc1nc(C)c([C@H](OC(C)(C)C)C(=O)O)c(N2CCC(C)(C)CC2)c1-c1ccc(OCCc2ccc(F)cc2)cc1 = 4

Just so you know, measured fold change (FC) for Cc1ncc(-c2ccc(OCCc3ccc(F)cc3)cc2)c(N2CCC(C)(C)CC2)c1[C@H](OC(C)(C)C)C(=O)O came out at 2.5

---

methodSummary: AUC in rat at 50 mg/kg,po qd for 1 week
Format: ADME, organism-based
Set-up: dose 50 mg/kg, time 1 weeks, route po
conditionLabel: in vivo, 168 h
measurementKind: AUC (µM·h)
# number only, unit µM·h dropped from output

Lab book: AUC of Cc1cccc(Cl)c1CN1CCc2cc(-c3c(C)nc(C)c([C@H](OC(C)(C)C)C(=O)O)c3N3CCC(C)(C)CC3)ccc2C1 noted as 335

---

Overview of reported AUC(0-inf) across a group of compounds:
methodSummary: AUC (0 to infinity) in Sprague-Dawley rat at 5 mg/kg, po by LC-MS/MS analysis
Type: ADME, organism-based
Set-up: time infinity, dose 5 mg/kg, route po
conditionLabel: in vivo
Please reply with the bare figure in µM·h and do not write the unit itself.

Cc1cccc(Cl)c1CN1CCc2cc(-c3cnc(C)c([C@H](OC(C)(C)C)C(=O)O)c3N3CCC(C)(C)CC3)ccc2C1 = 21.6
Cc1nc(C)c([C@H](OC(C)(C)C)C(=O)O)c(N2CCC(C)(C)CC2)c1-c1ccc2c(c1)CCN(c1ncnc3c1cnn3C)C2 = 36.2
Cc1nc(C)c([C@H](OC(C)(C)C)C(=O)O)c(N2CCC(C)(C)CC2)c1-c1ccc2c(c1)CCN(c1nccc(-c3cnccn3)n1)C2 = 23.7

Kindly note the recorded AUC(0-inf) for Cc1nc(C)c([C@H](OC(C)(C)C)C(=O)O)c(N2CCC(C)(C)CC2)c1-c1ccc2c(c1)CCN(c1ncnc3c1oc1ccccc13)C2 , which is 226

Given item Cc1nc(C)c([C@H](OC(C)(C)C)C(=O)O)c(N2CCC(C)(C)CC2)c1-c1ccc2c(c1)CCN(Cc1cccc(F)c1C)C2 , the value recorded as its AUC(0-inf) is 23.2

Consider Cc1nc(C)c([C@H](OC(C)(C)C)C(=O)O)c(N2CCC(C)(C)CC2)c1-c1ccc2c(c1)CCN(Cc1ccc(F)cc1F)C2 . Its measured AUC(0-inf) is 7.3

Ref: ChEMBL document CHEMBL5131559
